// provenance: patent US20210230570

For each of the proteins below, state its KM.
Biological target: Factor X (FX), P00742
Sequence (P00742 whole entry, looked up): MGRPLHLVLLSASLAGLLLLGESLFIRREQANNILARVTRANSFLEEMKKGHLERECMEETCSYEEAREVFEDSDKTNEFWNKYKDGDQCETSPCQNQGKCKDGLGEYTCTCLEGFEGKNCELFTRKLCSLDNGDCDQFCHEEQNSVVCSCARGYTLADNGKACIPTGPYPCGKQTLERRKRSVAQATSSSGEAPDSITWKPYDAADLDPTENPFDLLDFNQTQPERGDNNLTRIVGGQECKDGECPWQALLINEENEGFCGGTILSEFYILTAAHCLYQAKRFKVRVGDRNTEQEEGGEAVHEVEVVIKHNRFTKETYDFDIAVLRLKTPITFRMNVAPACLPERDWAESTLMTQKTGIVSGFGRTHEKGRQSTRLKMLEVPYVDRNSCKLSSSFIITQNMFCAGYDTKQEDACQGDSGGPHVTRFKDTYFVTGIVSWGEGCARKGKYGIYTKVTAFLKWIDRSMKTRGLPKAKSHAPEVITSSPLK
Output spec: scalar in µM, unitless text.

Looking for the measured KM of FIXa-R318Y/R338E/N346Y/R403E/E410N (protein) chain 1: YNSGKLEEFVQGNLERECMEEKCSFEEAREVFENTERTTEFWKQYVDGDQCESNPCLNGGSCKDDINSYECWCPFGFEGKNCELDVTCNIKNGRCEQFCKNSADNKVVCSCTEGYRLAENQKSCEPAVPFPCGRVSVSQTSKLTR chain 2: VVGGEDAKPGQFPWQVVLNGKVDAFCGGSIVNEKWIVTAAHCVETGVKITVVAGEHNIEETEHTEQKRNVIRIIPHHNYNAAINKYNHDIALLELDEPLVLNSYVTPICIADKEYTNIFLKFGSGYVSGWGRVFHKGYSALVLQYLRVPLVDRATCLESTKFTIYYNMFCAGFHEGGRDSCQGDSGGPHVTEVEGTSFLTGIISWGEECAMKGKYGIYTKVSEYVNWIKNKTKLT , can you help?
0.0281

Looking for the measured KM of FIXa-R318Y/R338E/T343R/R403E (protein) chain 1: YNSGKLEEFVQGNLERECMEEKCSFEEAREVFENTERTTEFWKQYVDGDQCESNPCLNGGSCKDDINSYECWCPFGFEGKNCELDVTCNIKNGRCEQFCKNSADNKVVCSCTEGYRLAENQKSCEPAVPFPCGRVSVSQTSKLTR chain 2: VVGGEDAKPGQFPWQVVLNGKVDAFCGGSIVNEKWIVTAAHCVETGVKITVVAGEHNIEETEHTEQKRNVIRIIPHHNYNAAINKYNHDIALLELDEPLVLNSYVTPICIADKEYTNIFLKFGSGYVSGWGRVFHKGYSALVLQYLRVPLVDRATCLESTKFRIYNNMFCAGFHEGGRDSCQGDSGGPHVTEVEGTSFLTGIISWGEECAMKGKYGIYTKVSEYVNWIKEKTKLT , can you help?
0.0443

Looking for the measured KM of FIXa K228N/K247N/N249S/R318Y/R338E/R403E/E410N (protein) chain 1: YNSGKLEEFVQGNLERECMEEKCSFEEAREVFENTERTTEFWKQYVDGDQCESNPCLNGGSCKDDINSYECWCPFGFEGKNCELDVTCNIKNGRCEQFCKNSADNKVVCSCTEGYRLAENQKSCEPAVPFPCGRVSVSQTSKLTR chain 2: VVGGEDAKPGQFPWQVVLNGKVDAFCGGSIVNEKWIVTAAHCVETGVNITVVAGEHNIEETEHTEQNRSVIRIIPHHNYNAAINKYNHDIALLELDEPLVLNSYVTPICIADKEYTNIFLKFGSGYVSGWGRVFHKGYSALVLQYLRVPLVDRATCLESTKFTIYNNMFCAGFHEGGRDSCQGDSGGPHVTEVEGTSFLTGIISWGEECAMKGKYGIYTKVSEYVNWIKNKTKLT , can you help?
0.0558
